Test system: A498 renal
assay remarks: NCI-60 one-dose screen, 48 h (100 = growth as untreated, 0 = no growth, -100 = all killed)
condition details: 10 µM unless noted
About 83,000 compounds went through this panel and 20% of them were active in at least one assay; those are over-represented in the sample as a whole.
reported property: growth (%)
Express it in %; write the number only.

Below, each entry is followed by its recorded growth result.
# molecule, value units, measurement
data = [
    ("C=C[C@@H]1C[C@H](O)Cc2ccccc2N1", "%", 99.9),
    ("FC(F)(F)c1ccccc1-c1cn2c(ccc3ccccc32)n1", "%", 81.6),
    ("CCCCN(CCCC)c1ccc(C(=N)c2ccc(N(CCCC)CCCC)cc2)cc1", "%", -25.7),
    ("CCCCCCCCCCCCCCCCNC(=O)OC(C)C", "%", 75.1),
    ("Cc1ccc(S(=O)(=O)n2cc(C(=O)C(=O)N3CCOCC3)c3ccccc32)cc1", "%", 118),
    ("CCOC(=O)c1ccc(NC(=O)N2CC(C)OC(C)C2)cc1 (stereo not drawn)", "%", 80.6),
]

Enquiry: What is its growth for A498 renal? Entry: Cc1c(C(N)=O)sc2c1c(=O)n(Cc1ccccc1)c1nnc(Nc3ccccc3)n21
Return: 110

Enquiry: What is its growth for A498 renal? Entry: Nc1nnc(-c2ccc3ccccc3c2O)o1
Return: 103

Enquiry: What is its growth for A498 renal? Entry: COc1ccc(NC(=O)CSc2nc(-c3ccc(OC)c(OC)c3)cc(-c3cc(OC)c(OC)c(OC)c3)n2)cc1
Return: 99.8

Enquiry: What is its growth for A498 renal? Entry: COc1ccc(Nc2[nH]n3c(=O)cc(-c4ccccc4)nc3c2C(=O)Nc2ccc(C)cc2)c(OC)c1
Return: 108

Enquiry: What is its growth for A498 renal? Entry: Cc1nn(-c2ccc([N+](=O)[O-])cc2)c2ncnc(NCCc3ccccc3)c12
Return: 81.7

Enquiry: What is its growth for A498 renal? Entry: COc1ccc(-c2nc(SCCC(C)C)nc(Nc3ccc(F)c(Cl)c3)c2C#N)cc1
Return: 76.8

Enquiry: What is its growth for A498 renal? Entry: O=C(Nc1ccc2c(c1)OCO2)C(=O)c1c[nH]c2cc(F)ccc12
Return: 55

Enquiry: What is its growth for A498 renal? Entry: CC(NNC(C)c1ccccc1)c1ccccc1 (stereo not drawn)
Return: 97.9

Enquiry: What is its growth for A498 renal? Entry: O=C(CSC1CCc2ccccc21)N/N=C/c1ccccc1O (stereo not drawn)
Return: 101

Enquiry: What is its growth for A498 renal? Entry: Cn1ccc(Nc2nccc(Oc3ccc(C(=O)Nc4cccc(F)c4)c(Cl)c3)n2)c1
Return: 46.9

Enquiry: What is its growth for A498 renal? Entry: O=c1cc/c(=N\Nc2ccccc2)c(=O)/c1=N/Nc1ccccc1
Return: 93

Enquiry: What is its growth for A498 renal? Entry: NNc1cccc(/C=C/c2ccccc2)cc1=O
Return: 83.9

Enquiry: What is its growth for A498 renal? Entry: COc1ccc(Nc2ncccc2C(=O)NCc2cn(Cc3cccc(Oc4ccccc4)c3)nn2)c(OC)c1
Return: -3.05

Enquiry: What is its growth for A498 renal? Entry: Cc1ccc(NS(=O)(=O)c2cc(C)ccc2C)cc1
Return: 38.7

Enquiry: What is its growth for A498 renal? Entry: O=C(CSc1nc2ccccc2[nH]1)c1ccc(N2CCOCC2)cc1
Return: 85.8

Enquiry: What is its growth for A498 renal? Entry: COc1ccc(N2CCN(Cc3cc(C(=O)/C=C/c4c[nH]c5ccccc45)ccc3O)CC2)cc1
Return: 106

Enquiry: What is its growth for A498 renal? Entry: CC(C)(C)n1cc(-c2ccnc(NCCCNS(=O)(=O)c3ccccc3)c2)c(-c2cccc(O)c2)n1
Return: 40.2
